Overview of recorded GI50 for various compounds
System: RXF 393
Test Details: NCI-60 SRB screen: renal cancer RXF 393
Assay type: cell-based, human
Particulars: Homo sapiens; RXF 393; five concentrations, 48 h, SRB; read-out: GI50

Take a look at these entries with their results.
Compound	GI50
C=C(C)[C@@H]1CC[C@]2(C(=O)OC)CC[C@]3(C)[C@H](CC[C@@H]4[C@@]5(C)CCC(=NOCCC(=NOCCC#N)NCCC#N)C(C)(C)[C@@H]5CC[C@]43C)[C@@H]12 [Compound 21]	5.64 µM
C=C(C)[C@@H]1CC[C@]2(C(=O)NCCCN)CC[C@]3(C)[C@H](CC[C@@H]4[C@@]5(C)CCC(=O)C(C)(C)[C@@H]5CC[C@]43C)[C@@H]12 [Compound 10]	17.1 µM
CC(=O)OCC12CCC(C(C)C(N)=O)C1C1CCC3C4(C)CCC(OC(C)=O)C(C)(C)C4CCC3(C)C1(C)CC2 (centres unmarked) [Compound 4]	4.28 µM

**Q:** Supply recorded GI50 for C=C(C)[C@@H]1CC[C@]2(C(=O)NCCNCCNCCN)CC[C@]3(C)[C@H](CC[C@@H]4[C@@]5(C)CC[C@H](O)C(C)(C)[C@@H]5CC[C@]43C)[C@@H]12 [Compound 6] here.
**A:** 13.2 µM

**Q:** Supply recorded GI50 for C=C(C)[C@@H]1CC[C@]2(C(=O)NCCNCCNCCN)CC[C@]3(C)[C@H](CC[C@@H]4[C@@]5(C)CCC(=O)C(C)(C)[C@@H]5CC[C@]43C)[C@@H]12 [Compound 11] here.
**A:** 5.6 µM

---

Test system: NCI-H23
Test Details: NCI-60 SRB screen: non-small cell lung cancer NCI-H23
Assay type: cell-based, human
Particulars: NCI-H23; single dose 10 µM
Value Kind: Percentage Cell Growth
Please format your answer as a value with the unit trailing.

Take a look at these entries with their results.
Molecule	Percentage Cell Growth
C=C(C)[C@@H]1CC[C@]2(C(=O)NCCNCCNCCN)CC[C@]3(C)[C@H](CC[C@@H]4[C@@]5(C)CCC(=O)C(C)(C)[C@@H]5CC[C@]43C)[C@@H]12	−35.23%
CC(=O)OCC12CCC(C(C)C(N)=O)C1C1CCC3C4(C)CCC(OC(C)=O)C(C)(C)C4CCC3(C)C1(C)CC2 (stereo not drawn)	−40.35%
C=C(C)[C@@H]1CC[C@]2(C(N)=O)CC[C@]3(C)[C@H](CC[C@@H]4[C@@]5(C)CC[C@H](O)C(C)(C)[C@@H]5CC[C@]43C)[C@@H]12	−27.08%
C=C(C)[C@@H]1CC[C@]2(C(=O)NCCNCCNCCN)CC[C@]3(C)[C@H](CC[C@@H]4[C@@]5(C)CC[C@H](O)C(C)(C)[C@@H]5CC[C@]43C)[C@@H]12	−51.70%
C=C(C)[C@@H]1CC[C@]2(C(=O)NCCCN)CC[C@]3(C)[C@H](CC[C@@H]4[C@@]5(C)CCC(=O)C(C)(C)[C@@H]5CC[C@]43C)[C@@H]12	−8.47%

**Q:** Supply recorded Percentage Cell Growth for C=C(C)[C@@H]1CC[C@]2(C(=O)OC)CC[C@]3(C)[C@H](CC[C@@H]4[C@@]5(C)CCC(=NOCCC(=NOCCC#N)NCCC#N)C(C)(C)[C@@H]5CC[C@]43C)[C@@H]12 here.
**A:** 21.79%

All figures here come from paper PMC7587962.
